Species: Homo sapiens
Assay: In vitro absorption was measured in Caco-2 cell
Format: ADME
READOUT: Absorption (%)

SMILES_NOTATION | READOUT_UNIT | READOUT_NUMBER
O=C(O)[C@H]1[C@H](Cn2nnc3ccccc3c2=O)CC[C@@H]1Sc1ccc(-c2ccc(Cl)cc2)cc1 | % | 95
O=C(O)[C@H]1[C@H](Cn2nnc3ccccc3c2=O)CC[C@@H]1SCCc1ccc(-c2ccc(Cl)cc2)cc1 | % | 91
O=C(O)[C@H]1[C@H](CN2C(=O)c3ccccc3C2=O)CC[C@@H]1S(=O)(=O)CCc1ccc(-c2ccc(Cl)cc2)cc1 | % | 92
O=C(O)[C@H]1[C@H](CN2C(=O)c3ccccc3C2=O)CC[C@@H]1SCCc1ccc(-c2ccc(Cl)cc2)cc1 | % | 94
O=C(O)[C@H]1[C@H](CN2C(=O)c3ccccc3C2=O)CC[C@@H]1SCCc1ccc(-c2ccc(F)cc2)cc1 | % | 90

----------
Molecular target: 72 kDa type IV collagenase (Homo sapiens, UniProt P08253)
Sequence (P08253 whole entry): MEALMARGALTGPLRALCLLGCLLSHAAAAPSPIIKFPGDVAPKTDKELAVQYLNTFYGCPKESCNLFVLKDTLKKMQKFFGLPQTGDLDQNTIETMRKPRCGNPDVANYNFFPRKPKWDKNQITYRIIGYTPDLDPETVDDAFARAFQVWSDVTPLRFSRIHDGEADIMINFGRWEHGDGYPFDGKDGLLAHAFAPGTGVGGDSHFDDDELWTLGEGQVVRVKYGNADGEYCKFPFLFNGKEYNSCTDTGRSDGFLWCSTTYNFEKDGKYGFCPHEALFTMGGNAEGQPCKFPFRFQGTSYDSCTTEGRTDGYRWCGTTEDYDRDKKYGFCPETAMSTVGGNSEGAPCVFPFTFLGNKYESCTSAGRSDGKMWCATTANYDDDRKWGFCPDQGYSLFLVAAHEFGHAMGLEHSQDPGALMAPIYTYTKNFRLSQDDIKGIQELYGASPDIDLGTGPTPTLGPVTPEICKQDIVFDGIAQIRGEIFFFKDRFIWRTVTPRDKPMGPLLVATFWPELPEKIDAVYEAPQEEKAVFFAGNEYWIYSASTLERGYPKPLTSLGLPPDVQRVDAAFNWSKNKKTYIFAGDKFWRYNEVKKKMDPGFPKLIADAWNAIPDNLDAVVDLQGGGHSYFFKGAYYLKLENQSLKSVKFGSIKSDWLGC
Listed compounds paired with reported IC50
The figure you give is taken to be in nM; do not add the unit.

Below are worked cases with known answers.
SMILES_NOTATION | EXPERIMENTAL_TARGET | IC50 / nM
O=C(O)[C@H]1[C@H](CN2C(=O)c3ccccc3C2=O)CC[C@@H]1Sc1ccc(-c2ccccc2)cc1 | 72 kDa type IV collagenase (Homo sapiens, UniProt P08253) | 24
O=C(O)[C@H]1[C@H](Cn2nc3n(c2=O)CCCCC3)CC[C@@H]1Sc1ccc(-c2ccc(Cl)cc2)cc1 | 72 kDa type IV collagenase (Homo sapiens, UniProt P08253) | 1700
O=C(O)[C@H]1[C@H](Cn2nc3ccccn3c2=O)CC[C@@H]1Sc1ccc(-c2ccc(Cl)cc2)cc1 | 72 kDa type IV collagenase (Homo sapiens, UniProt P08253) | 25

// next entry
Query: Kindly state the measured IC50 obtained for CC1(C)NC(=O)N(C[C@@H]2CC[C@H](Sc3ccc(-c4ccc(Cl)cc4)cc3)[C@H]2C(=O)O)C1=O with 72 kDa type IV collagenase (Homo sapiens, UniProt P08253).
Reply: 572

----------
Test: In vivo maximum plasma concentration was determined in mice after 50 mg/kg (po) administration
Type: ADME, organism-based
Set-up: route oral, dose 50 mg/kg
Conditions: mouse
READOUT: Cmax (µg/mL)

SMILES_NOTATION | READOUT | READOUT_NUMBER
O=C(O)[C@H]1[C@H](Cn2nnc3ccccc3c2=O)CC[C@@H]1Sc1ccc(-c2ccc(Cl)cc2)cc1 | Cmax | 93
O=C(O)[C@H]1[C@H](CN2C(=O)c3ccccc3C2=O)CC[C@@H]1SCCc1ccc(-c2ccc(F)cc2)cc1 | Cmax | 107

----------
Molecular target: Collagenase 3 (Homo sapiens, UniProt P45452)
READOUT: IC50 (µM)

Look over these answered cases.
MOLECULE | READOUT_UNIT | IC50
O=C(O)[C@H]1[C@H](CN2NNc3ccsc3C2=O)CC[C@@H]1Sc1ccc(-c2ccc(Cl)cc2)cc1 | µM | 0.133
O=C(NO)C(CCn1nnc2ccccc2c1=O)CSc1ccc(-c2ccc(Cl)cc2)cc1 (stereo unspecified) | µM | 0.0012
O=C(O)[C@H]1[C@H](Cn2nc3n(c2=O)CCCCC3)CC[C@@H]1Sc1ccc(-c2ccc(Cl)cc2)cc1 | µM | 0.0051
O=C(O)[C@H]1[C@H](CN2C(=O)c3ccccc3C2=O)CC[C@@H]1Sc1ccc(-c2ccccc2)cc1 | µM | 0.066

P: O=C(O)[C@H]1[C@H](Cn2nnc3ccccc3c2=O)CC[C@@H]1Sc1ccc(-c2nc3ccccc3s2)cc1
Q: O=C(O)[C@H]1[C@H](CN2C(=O)c3ccccc3C2=O)CC[C@@H]1SCCc1ccc(-c2ccc(Cl)cc2)cc1
Query: Between P and Q , which one has the lower reported IC50 value? Your answer should be the label of the entry you select.
Reply: Q
(Q: 0.129 µM, P: 0.417 µM)

----------
Biological target: Collagenase 3 (Homo sapiens, UniProt P45452)
Experiment: Inhibitory activity against matrix metalloprotease-13 (MMP13)
READOUT: IC50 (µM)

Reference set (6 entries):
SMILES_NOTATION | EXPERIMENTAL_TARGET | IC50 [µM]
O=C(O)[C@H]1[C@H](CN2C(=O)c3ccccc3S2(=O)=O)CC[C@@H]1Sc1ccc(-c2ccc(Cl)cc2)cc1 | Collagenase 3 (Homo sapiens, UniProt P45452) | 0.08
CC1(C)NC(=O)N(C[C@@H]2CC[C@H](Sc3ccc(-c4ccc(Cl)cc4)cc3)[C@H]2C(=O)O)C1=O | Collagenase 3 (Homo sapiens, UniProt P45452) | 0.0031
O=C(O)[C@H]1[C@H](Cn2nnc3ccccc3c2=O)CC[C@@H]1Sc1ccc(-c2ccncc2)cc1 | Collagenase 3 (Homo sapiens, UniProt P45452) | 0.275
CSc1ccc(-c2ccc(S[C@H]3CC[C@@H](Cn4c(=O)nc5ccccn5c4=O)[C@@H]3C(=O)O)cc2)cc1 | Collagenase 3 (Homo sapiens, UniProt P45452) | 0.195
O=C(O)[C@H]1[C@H](Cn2c(=O)nc3ccccn3c2=O)CC[C@@H]1Sc1ccc(-c2ccc(Cl)cc2)cc1 | Collagenase 3 (Homo sapiens, UniProt P45452) | 0.027
O=C(O)[C@H]1[C@H](CN2C(=O)c3ccccc3C2=O)CC[C@@H]1SCc1ccc(-c2ccccc2)cc1 | Collagenase 3 (Homo sapiens, UniProt P45452) | 0.015

a: O=C(O)[C@@H]1[C@@H](Cn2nnc3ccccc3c2=O)CC[C@H]1Sc1ccc(-c2ccc(Cl)cc2)cc1
b: CSc1ccc(-c2ccc(S[C@H]3CC[C@@H](Cn4nnc5ccccc5c4=O)[C@@H]3C(=O)O)cc2)cc1
Query: Between the entries labelled a and b , which has a larger IC50 value on record? // output: label of the selected item
Reply: b

A: O=C(O)[C@H]1[C@H](CN2NNc3nc[nH]c3C2=O)CC[C@@H]1Sc1ccc(-c2ccc(Cl)cc2)cc1
B: O=C(O)[C@H]1[C@H](CN2C(=O)c3ccccc3C2=O)CC[C@@H]1SCCc1ccc(-c2ccccc2)cc1
C: N#Cc1ccc(-c2ccc(S[C@H]3CC[C@@H](Cn4c(=O)nc5ccccn5c4=O)[C@@H]3C(=O)O)cc2)cc1
Query: // smallest IC50 at index 0, largest at the end Present the labels in the sequence the task asks for.
Reply: C, B, A
(C: 0.031 µM, B: 0.162 µM, A: 0.682 µM)

----------
As a worked illustration, we turn to IC50 data collected for Matrix metalloproteinase-9 (Homo sapiens, UniProt P14780).
READOUT: IC50 (nM)

COMPOUND | READOUT_UNIT | IC50
O=C(O)[C@H]1[C@H](Cn2nnc3ccccc3c2=O)CC[C@@H]1Sc1ccc(-c2nc3ccccc3s2)cc1 | nM | 661
O=C(O)[C@H]1[C@H](Cn2nnc3ccccc3c2=O)CC[C@@H]1SCCc1ccc(-c2ccc(Cl)cc2)cc1 | nM | 24
O=C(O)[C@H]1[C@H](CN2C(=O)c3ccccc3C2=O)CC[C@@H]1Sc1ccc(-c2ccccc2)cc1 | nM | 76
O=C(O)[C@H]1[C@H](Cn2nnc3ccccc3c2=O)CC[C@@H]1S(=O)(=O)c1ccc(-c2ccc(Cl)cc2)cc1 | nM | 512

1: O=C(O)[C@H]1[C@H](CN2C(=O)c3ccccc3C2=O)CC[C@@H]1S(=O)(=O)CCc1ccc(-c2ccc(Cl)cc2)cc1
2: O=C(O)[C@H]1[C@H](CN2NNc3nc[nH]c3C2=O)CC[C@@H]1Sc1ccc(-c2ccc(Cl)cc2)cc1
Query: I need your help: which of the pair 1 , 2 has higher IC50? Returns: label corresponding to the selected item.
Reply: 2
(2: 642 nM, 1: 39 nM)

I: O=C(O)[C@H]1[C@H](CN2C(=O)c3ccccc3C2=O)CC[C@@H]1S(=O)(=O)CCc1ccc(-c2ccc(F)cc2)cc1
II: O=C(O)[C@@H]1[C@@H](Cn2nnc3ccccc3c2=O)CC[C@H]1Sc1ccc(-c2ccc(Cl)cc2)cc1
Query: Param pair: I , II . Output: the one whose IC50 is numerically greater. Returns: label corresponding to the selected item.
Reply: II
(II: 3000 nM, I: 47 nM)

----------
Stromelysin-1 (Homo sapiens, UniProt P08254) pIC50 data
Sequence (P08254 whole entry): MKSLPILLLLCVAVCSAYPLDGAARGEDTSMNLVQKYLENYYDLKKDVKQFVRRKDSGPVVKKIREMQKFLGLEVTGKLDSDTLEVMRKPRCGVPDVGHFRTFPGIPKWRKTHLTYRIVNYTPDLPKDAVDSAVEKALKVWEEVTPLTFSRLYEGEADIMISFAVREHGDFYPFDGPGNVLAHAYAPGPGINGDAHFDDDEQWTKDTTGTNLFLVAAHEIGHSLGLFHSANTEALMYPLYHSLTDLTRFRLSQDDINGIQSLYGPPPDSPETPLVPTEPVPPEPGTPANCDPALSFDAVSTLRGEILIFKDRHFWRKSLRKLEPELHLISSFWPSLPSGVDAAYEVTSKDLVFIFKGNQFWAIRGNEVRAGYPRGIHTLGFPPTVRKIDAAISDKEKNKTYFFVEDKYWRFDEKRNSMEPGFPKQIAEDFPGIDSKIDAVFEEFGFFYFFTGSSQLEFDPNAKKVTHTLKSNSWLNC
pIC50: −log10 of the molar value.
READOUT: pIC50

Past entries and their recorded results:
MOLECULE | pIC50
O=C(O)[C@H]1[C@H](Cn2nc3ccccn3c2=O)CC[C@@H]1Sc1ccc(-c2ccc(Cl)cc2)cc1 | 6.74
O=C(O)[C@H]1[C@H](CN2C(=O)c3ccccc3C2=O)CC[C@@H]1SCCc1ccc(-c2ccc(Cl)cc2)cc1 | 7.35
CC1(C)NC(=O)N(C[C@@H]2CC[C@H](Sc3ccc(-c4ccc(Cl)cc4)cc3)[C@H]2C(=O)O)C1=O | 5.03
O=C(O)[C@H]1[C@H](Cn2nnc3ccccc3c2=O)CC[C@@H]1Sc1ccc(-c2nc3ccccc3s2)cc1 | 5.10

I: O=C(O)[C@@H]1[C@@H](Cn2nnc3ccccc3c2=O)CC[C@H]1Sc1ccc(-c2ccc(Cl)cc2)cc1
II: O=C(O)[C@H]1[C@H](CN2C(=O)c3ccccc3C2=O)CC[C@@H]1SCCc1ccc(-c2ccccc2)cc1
Query: Returns: the label, I or II , whose recorded pIC50 is the lower number. Selection: enter the item's label.
Reply: I
(I: 5.28, II: 7.59)
